molecular target: OCTN2 (organic cation/carnitine transporter 2) (Rattus norvegicus); assay: TP_TRANSPORTER: inhibition of Carnitine uptake (Carnitine: 0.02 uM, Cefepime: 2500 uM) in OCTN2-expressing HeLa cells; format: functional, cell-based; design: scale not given: the % may be the effect or the level left; conditions: human, probe carnitine (0.02 uM), read-out: Activity
Sequence (O70594 whole entry): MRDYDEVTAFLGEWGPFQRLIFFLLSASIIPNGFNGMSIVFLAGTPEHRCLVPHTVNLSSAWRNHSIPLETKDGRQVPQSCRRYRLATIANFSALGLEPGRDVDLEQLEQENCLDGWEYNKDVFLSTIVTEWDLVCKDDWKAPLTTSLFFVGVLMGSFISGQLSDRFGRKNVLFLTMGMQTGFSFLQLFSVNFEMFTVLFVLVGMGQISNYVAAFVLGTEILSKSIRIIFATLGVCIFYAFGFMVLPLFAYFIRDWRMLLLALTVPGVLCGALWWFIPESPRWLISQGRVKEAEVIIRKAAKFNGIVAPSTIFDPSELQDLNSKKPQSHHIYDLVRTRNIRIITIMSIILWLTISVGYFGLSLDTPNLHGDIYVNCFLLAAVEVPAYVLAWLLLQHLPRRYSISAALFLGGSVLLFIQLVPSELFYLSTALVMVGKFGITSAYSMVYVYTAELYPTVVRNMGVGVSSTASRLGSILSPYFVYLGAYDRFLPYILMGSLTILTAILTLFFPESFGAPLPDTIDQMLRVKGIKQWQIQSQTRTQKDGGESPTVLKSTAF
MEASURED QUANTITY: activity at 2500 µM
Param answer (str): number followed by unit.

**Q:** So what's the measured activity at 2500 µM for this one? CO/N=C(\C(=O)N[C@@H]1C(=O)N2C(C(=O)[O-])=C(C[N+]3(C)CCCC3)CS[C@H]12)c1csc(N)n1 [CEFEPIME]
**A:** 28%

====

So I've got a bunch of compounds here, and I need their IC50 values.
target: Organic cation/carnitine transporter 2 (Homo sapiens, UniProt O76082); test: TP_TRANSPORTER: inhibition of Carnitine uptake (Carnitine: 0.02 uM) in OCTN2-expressing HeLa cells
Sequence (O76082 whole entry): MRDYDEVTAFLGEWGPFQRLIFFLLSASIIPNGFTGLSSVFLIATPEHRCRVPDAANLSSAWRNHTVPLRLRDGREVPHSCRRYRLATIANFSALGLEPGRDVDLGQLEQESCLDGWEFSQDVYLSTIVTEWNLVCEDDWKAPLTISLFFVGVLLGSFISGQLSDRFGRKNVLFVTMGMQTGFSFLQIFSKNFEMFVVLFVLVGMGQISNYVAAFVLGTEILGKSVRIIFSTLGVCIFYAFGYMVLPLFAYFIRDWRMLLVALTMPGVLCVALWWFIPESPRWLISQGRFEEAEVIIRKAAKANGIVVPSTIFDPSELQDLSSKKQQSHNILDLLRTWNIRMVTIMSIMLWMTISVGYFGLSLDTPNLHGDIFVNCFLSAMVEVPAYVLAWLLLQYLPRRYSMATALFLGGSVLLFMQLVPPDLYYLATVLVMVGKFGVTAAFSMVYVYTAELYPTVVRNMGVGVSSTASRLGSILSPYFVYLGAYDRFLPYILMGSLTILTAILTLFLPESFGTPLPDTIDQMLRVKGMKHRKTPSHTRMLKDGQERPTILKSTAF
One number for each entry, in mM.

| COMPOUND | DISPLAY UNIT | IC50 |
| --- | --- | --- |
| CO/N=C(\C(=O)N[C@@H]1C(=O)N2C(C(=O)[O-])=C(C[N+]3(C)CCCC3)CS[C@H]12)c1csc(N)n1 [CEFEPIME] | mM | 1.7 |

Consider the additional compound presented here.
**Q:** So what's the measured IC50 for this one? `CO/N=C(\C(=O)N[C@@H]1C(=O)N2C(C(=O)[O-])=C(C[n+]3ccc(N)n3CCO)CS[C@H]12)c1csc(N)n1`
**A:** 6.4

Cited source for all entries: ChEMBL document CHEMBL2074042
